Reference source for all entries: patent US20230028110A1

In this section we review reported Kd values for a set of binders.
target: T1, L1 (DV1-GV4), soluble human Vδ1/Vγ4 γδ TCR heterodimer in leucine zipper format (human)
T1 construct: Biotinylated in the DELFIA ranking; also called Antigen L1 (TRDV1/TRGV4); human DV1-GV4; not shown: gamma chain: Vγ4 (TRGV4) domain on a TCR constant region, leucine zipper, histidine tag
T1 sequence (main, as listed by the source): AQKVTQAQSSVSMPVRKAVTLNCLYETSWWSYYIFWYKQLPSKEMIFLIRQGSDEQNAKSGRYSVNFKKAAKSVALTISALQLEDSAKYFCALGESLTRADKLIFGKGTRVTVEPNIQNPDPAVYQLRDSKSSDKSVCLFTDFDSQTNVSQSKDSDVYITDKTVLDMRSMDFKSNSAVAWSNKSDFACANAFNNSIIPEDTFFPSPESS
assay.text: SPR (Reichert 4SPR), antibody on Protein A chip, Vδ1 heterodimer at 6.25-100 nM as analyte
Report the value in nM with no unit label.

>>> observed_result("ADT1-4-2 (L74S) (antibody, V domains shown, Captured on Protein A) VH: EVQLQQSGPGLVKPSQTLSLTCAISGDSVSSKSAAWNWIRQSPSRGLEWLGRTYYRSKWSTDYAASVKSRITINPDTSKNQLSLQLNSVTPEDTAVYYCARTWVGYVDRWGQGTLVTVSS VL: DIQMTQSPPALSASVGDRVTITCRASQDINDWLAWYQHKPGKAPKLLIYDASSLESGVPSRFSGSGSGTEFTLTISSLQPDDFATYYCQQKYSAPQVTFGQGTRLEIKR")
4
>>> observed_result("ADT1-4-2 (antibody, IgG1, V domains shown, IgG1) VH: EVQLQQSGPGLVKPSQTLSLTCAISGDSVSSKSAAWNWIRQSPSRGLEWLGRTYYRSKWSTDYAASVKSRITINPDTSKNQLSLQLNSVTPEDTAVYYCARTWVGYVDRWGQGTLVTVSS VL: DIQMTQSPPALSASVGDRVTITCRASQDINDWLAWYQHKPGKAPKLLIYDASSLESGVPLRFSGSGSGTEFTLTISSLQPDDFATYYCQQKYSAPQVTFGQGTRLEIK")
0.34
>>> observed_result("1245_P02_G04 (antibody, IgG1, V domains shown, also called ADT1-4; parental ADT1-4) VH: QVQLQQSGPGLVKPSQTLSLTCAISGDSVSSKSAAWNWIRQSPSRGLEWLGRTYYRSKWSTDYAASVKSRITINPDTSKNQLSLQLNSVTPEDTAVYYCARTWSGYVDVWGQGTLVTVSS VL: DIQMTQSPPALSASVGDRVTITCRASQDINDWLAWYQHKPGKAPKLLIYDASSLESGVPSRFSGSGSGTEFTLTISSLQPDDFATYYCQQSYSTPQVTFGQGTRLEIK")
47

Please examine the following record next.
Fill blank: measured Kd of the binder ADT1-4 (S74L) (antibody, V domains shown, Captured on Protein A; also called ADT1-4 (574L)) VH: QVQLQQSGPGLVKPSQTLSLTCAISGDSVSSKSAAWNWIRQSPSRGLEWLGRTYYRSKWSTDYAASVKSRITINPDTSKNQLSLQLNSVTPEDTAVYYCARTWSGYVDVWGQGTLVTVSS VL: DIQMTQSPPALSASVGDRVTITCRASQDINDWLAWYQHKPGKAPKLLIYDASSLESGVPLRFSGSGSGTEFTLTISSLQPDDFATYYCQQSYSTPQVTFGQGTRLEIKR is ____.
3.5
